Biological target: MST4 (Homo sapiens (Human))
Sequence (Q9P289 whole entry, species assumed): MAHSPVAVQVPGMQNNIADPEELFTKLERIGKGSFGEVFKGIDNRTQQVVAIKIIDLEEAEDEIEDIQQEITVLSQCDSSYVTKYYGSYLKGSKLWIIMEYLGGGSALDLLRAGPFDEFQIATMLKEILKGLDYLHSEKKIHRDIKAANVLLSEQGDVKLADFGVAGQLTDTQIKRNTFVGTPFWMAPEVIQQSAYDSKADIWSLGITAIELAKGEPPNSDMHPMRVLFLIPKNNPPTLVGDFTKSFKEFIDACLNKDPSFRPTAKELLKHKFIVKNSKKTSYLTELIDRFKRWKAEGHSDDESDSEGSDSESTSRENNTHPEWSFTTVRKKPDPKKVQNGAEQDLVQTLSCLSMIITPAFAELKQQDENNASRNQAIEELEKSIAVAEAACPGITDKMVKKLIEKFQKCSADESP
Assay: MST4 kinase selectivity assay
Format: biochemical
Conditions: 1 μM inhibitor concentration
Assignment: determine reported percentage inhibition of MST4 for the given compounds.
Answer format: numeric, percentage implied, no suffix.

Ask: Using the record for c1cc2[nH]nc3c2c(n1)N(C1CCCC1)CCC3 [Example 23] , state its measured percentage inhibition of MST4.
Reply: 0

Ask: Using the record for CC(C)n1ncc2c1CN(C1CCN(C)CC1)c1nccc3[nH]nc-2c13 [Example 68] , state its measured percentage inhibition of MST4.
Reply: 0

Ask: Using the record for c1cc2[nH]nc3c2c(n1)N(C1CCC1)CCC3 [Example 22] , state its measured percentage inhibition of MST4.
Reply: 6

Ask: Using the record for CN1CCC(N2Cc3ccccc3-c3n[nH]c4ccnc2c34)CC1 [Example 55] , state its measured percentage inhibition of MST4.
Reply: 0

Ask: Using the record for c1cc2[nH]nc3c2c(n1)N(C1CCOCC1)CCC3 [Example 29] , state its measured percentage inhibition of MST4.
Reply: 1

Data provenance: patent US10918645B2
